Documented melting point across a set of compounds

Some solved cases for reference:
COc1ccccc1S(=O)(=O)Nc1cncc(-c2ccc(-c3ccc4c(c3)CN(C)C4=O)s2)c1 [Compound 37] | 273 to 276 °C
CN1Cc2cc(-c3ccc(-c4cncc(NS(=O)(=O)c5ccccc5Br)c4)s3)ccc2C1=O [Compound 32] | 289 to 293 °C
CN1Cc2cc(-c3ccc(-c4cncc(NS(=O)(=O)c5ccc(C(=O)O)cc5)c4)s3)ccc2C1=O [Compound 55] | > 310 °C

melting point recorded for this compound, CN1Cc2cc(-c3ccc(-c4cncc(NC(=O)c5ccc(F)cc5F)c4)s3)ccc2C1=O [Compound 8] , is 267 to 269 °C
